Molecular target: STING (Homo sapiens, UniProt Q86WV6, G230A/H232R/R293Q/R71H)
Construct: host or cells: THP-1 / THP1-Dual / THP1-Lucia ISG cells
Sequence (Q86WV6 whole entry R71H/G230A/H232R/R293Q): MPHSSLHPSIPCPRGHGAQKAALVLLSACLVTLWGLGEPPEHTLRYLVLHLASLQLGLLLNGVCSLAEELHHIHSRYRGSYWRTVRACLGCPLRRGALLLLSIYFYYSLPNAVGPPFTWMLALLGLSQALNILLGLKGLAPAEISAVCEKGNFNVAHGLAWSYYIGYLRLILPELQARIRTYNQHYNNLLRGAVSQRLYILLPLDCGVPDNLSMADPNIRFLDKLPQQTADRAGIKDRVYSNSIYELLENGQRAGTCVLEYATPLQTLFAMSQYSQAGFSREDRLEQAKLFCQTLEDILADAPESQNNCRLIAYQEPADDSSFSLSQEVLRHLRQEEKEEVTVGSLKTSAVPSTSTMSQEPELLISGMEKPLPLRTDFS
Experiment: STING pathway activity in THP1-Dual/THP-1 cells upon cGAMP or MSA-2 stimulation (luciferase/interferon readout)
Assay type: cell-based
Settings: 10 μM compound; cGAMP (100 μM) or MSA-2 (10 μM) stimulation; THP-1 cells
attribute measured: inhibition at 10 µM

CC1C(=O)N(Cc2c(F)cccc2C(F)(F)F)c2cc(C(=O)NCc3c(F)cc(F)cc3F)ccc2[C@@H]1C (stereo partly shown); < 50%
CC1(C)C(=O)N(Cc2c(Oc3cc(F)cc(F)c3)cccc2C(F)(F)F)c2cc(C#N)ccc21; > 50%
CC1C(=O)N(Cc2c(F)cc(F)cc2F)c2cc(C(=O)NCc3cc4ccccc4[nH]3)ccc2[C@@H]1C (stereo partly shown); > 50%

// switching to the query molecule
Need inhibition at 10 µM of "CC1(C)C(=O)N(Cc2c(Oc3cc(F)cc(F)c3)cccc2C(F)(F)F)c2cc3c(cc21)OCO3" , thanks.
> 50%
